Values were extracted from PubChem BioAssay (NCI).

tested on: A549/ATCC NSCLC; assay: NCI-60 one-dose screen, 48 h (100 = growth as untreated, 0 = no growth, -100 = all killed); conditions: 10 µM unless noted
About 83,000 compounds went through this panel and 20% of them were active in at least one assay; those are over-represented in the sample as a whole. Calls of active or inactive are those of the source. Rule for the calls: active = growth percent below 10; inactive = the rest.
Consider the following compounds and their measured growth readings.

**Q:** Print A549/ATCC NSCLC growth for "Cc1ccc(C(=O)Nc2ccc(CN3CCN(C)CC3)c(C(F)(F)F)c2)cc1C#Cc1cnc(N)cc1C#N" .
**A:** -84.7% (active)

**Q:** Print A549/ATCC NSCLC growth for "Cn1cc(-c2csc(-c3c[nH]c4ccc(F)cc34)n2)c2cnccc21" .
**A:** 5.33% (active)

**Q:** Print A549/ATCC NSCLC growth for "O=C([C@H]1C[C@H]1c1ccc(S(F)(F)(F)(F)F)cc1)N1CCN(c2cc(Cl)ccc2C(F)(F)F)CC1" .
**A:** 81.5% (inactive)

**Q:** Print A549/ATCC NSCLC growth for CC(=O)N1N=C(c2ccc(Nc3nc(Nc4ccc(F)cc4)nc(Nc4ccc(Cl)cc4)n3)cc2)CC1c1ccc(N(C)C)cc1 (centres undefined) .
**A:** 30.3% (inactive)

New cases:
**Q:** Print A549/ATCC NSCLC growth for "Nc1ccc(-c2ccc(N)c(Br)c2)cc1Br" .
**A:** 42.2% (inactive)

**Q:** Print A549/ATCC NSCLC growth for "CCN(CC)/C([O-])=c1\cccc\c1=C1\N=C(c2ccccc2)N=C1[n+]1ccc(-c2ccccc2)cc1" .
**A:** 97.9% (inactive)

**Q:** Print A549/ATCC NSCLC growth for "O=C1c2cccc3cccc(c23)C(=O)N1N1C(=O)c2cccc3c(N4CCNCC4)ccc(c23)C1=O" .
**A:** 89.9% (inactive)

**Q:** Print A549/ATCC NSCLC growth for "CC1(C)C(N)=Nc2cc(OCCCCN3Cc4ccccc4C3)c(OCC3CC3)cc21" .
**A:** 79.5% (inactive)

**Q:** Print A549/ATCC NSCLC growth for "NS(=O)(=O)c1ccc(C(=O)N=Nc2c(O)[nH]c3c(F)cccc23)cc1" .
**A:** 99.9% (inactive)

* * *

test system: SW-620 colon; assay: NCI-60 one-dose screen, 48 h (100 = growth as untreated, 0 = no growth, -100 = all killed); conditions: 10 µM unless noted
The panel holds about 83,000 compounds, 20% with a hit somewhere; the sample as a whole holds those more often.
REPORTED ENDPOINT: growth (%)
Entry rule: numbers only, all in %.

**Q:** Quickly give me recorded growth for O=C(CC1(O)C(=O)Nc2ccc(Br)cc21)c1ccc(Cl)cc1 (stereo not given)
**A:** 99

**Q:** Quickly give me recorded growth for "O=C(Nc1ccc(F)cc1)c1cc2cc(Nc3nc(-c4ccccc4)nc4ccccc34)ccc2oc1=O"
**A:** 107

**Q:** Quickly give me recorded growth for Fc1ccc(NC(c2ccc(F)cc2)C2CCN(CCCCc3ccccc3)CC2)cc1 (stereo not given)
**A:** 12.7

New cases:
**Q:** Quickly give me recorded growth for "O=C(CCN1CCOCC1)Nc1cccc(-n2cc(-c3ccncc3)c(-c3ccc(Cl)c(O)c3)n2)c1"
**A:** 23.4

**Q:** Quickly give me recorded growth for "COc1cc(N=Nc2ccc(O)c3ncccc23)c2ncccc2c1"
**A:** 30.5
